- TESTED_TARGET: SST2 (Homo sapiens, UniProt P30874)
- Construct: host or cells: PathHunter CHO-K1 SST2 cells
- Sequence (P30874 whole entry): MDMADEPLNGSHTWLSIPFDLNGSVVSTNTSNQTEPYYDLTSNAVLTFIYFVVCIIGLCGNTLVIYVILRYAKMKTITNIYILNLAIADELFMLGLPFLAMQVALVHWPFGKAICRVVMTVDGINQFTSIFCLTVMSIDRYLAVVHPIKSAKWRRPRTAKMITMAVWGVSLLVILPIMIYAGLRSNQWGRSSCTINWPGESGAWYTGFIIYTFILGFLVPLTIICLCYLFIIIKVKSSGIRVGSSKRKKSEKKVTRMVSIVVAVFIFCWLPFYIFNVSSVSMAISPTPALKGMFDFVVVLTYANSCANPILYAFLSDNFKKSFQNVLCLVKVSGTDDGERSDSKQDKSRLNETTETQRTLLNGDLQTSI
- PROTOCOL: PathHunter CHO-K1 SST2 Internalization Assay
- Assay type: cell-based
- EXPERIMENTAL_CONTEXT: PathHunter CHO-K1 SST2 cells; 90 min at 37 C; luminescence; read-out: Internalization EC50
READOUT_TYPE: EC50 (nM)
Reply numerically in nM, unit not repeated.

Could you tell me which EC50 is on file for CC[C@H](C)[C@@H]([C@@H](CC(=O)N1CCC[C@H]1[C@H](OC)[C@@H](C)C(=O)N[C@H](C)[C@@H](O)c1ccccc1)OC)N(C)C(=O)[C@@H](NC(=O)[C@H](C(C)C)N(C)C(=O)OCc1ccc(NC(=O)[C@H](CCCNC(N)=O)NC(=O)[C@@H](NC(=O)CN(C)C(=O)CCOCCC(=O)NCCNc2ncc(-c3cc(C)cc(F)c3)c(N3CCC(N)CC3)c2-c2nc3ccc(Cl)cc3[nH]2)C(C)C)c(O[C@@H]2O[C@H](C(=O)O)[C@@H](O)[C@H](O)[C@H]2O)c1)C(C)C ?
9.3

# input compound: CC[C@H](C)[C@@H]([C@@H](CC(=O)N1CCC[C@H]1[C@H](OC)[C@@H](C)C(=O)N[C@H](C)[C@@H](O)c1ccccc1)OC)N(C)C(=O)[C@@H](NC(=O)[C@H](C(C)C)N(C)C(=O)OCc1ccc(NC(=O)[C@H](CCCNC(N)=O)NC(=O)[C@@H](NC(=O)CCOCCOCCC(=O)NCCNc2ncc(-c3cc(C)cc(F)c3)c(N3CCC(N)CC3)c2-c2nc3ccc(Cl)cc3[nH]2)C(C)C)cc1C(=O)NCCCCCCCCCCC(=O)O)C(C)C ; wanted: its EC50
2.4

What value of EC50 has been reported for the following compound? CC[C@H](C)[C@@H]([C@@H](CC(=O)N1CCC[C@H]1[C@H](OC)[C@@H](C)C(=O)N[C@H](C)[C@@H](O)c1ccccc1)OC)N(C)C(=O)[C@@H](NC(=O)[C@H](C(C)C)N(C)C(=O)OCc1ccc(NC(=O)[C@H](CCCNC(N)=O)NC(=O)[C@@H](NC(=O)CCOCCC(=O)NCCNc2ncc(-c3cc(C)cc(F)c3)c(N3CCC(N)CC3)c2-c2nc3ccc(Cl)cc3[nH]2)C(C)C)cc1C(=O)NOC)C(C)C
4.6

Given the entry CC[C@H](C)[C@@H]([C@@H](CC(=O)N1CCC[C@H]1[C@H](OC)[C@@H](C)C(=O)N[C@H](C)[C@@H](O)c1ccccc1)OC)N(C)C(=O)[C@@H](NC(=O)[C@H](C(C)C)N(C)C(=O)OCc1ccc(NC(=O)[C@H](CCCNC(N)=O)NC(=O)[C@@H](NC(=O)CCOCCC(=O)NCCNc2ncc(-c3cc(C)cc(F)c3)c(N3CCC(N)CC3)c2-c2nc3ccc(Cl)cc3[nH]2)C(C)C)c(O[C@@H]2O[C@H](C(=O)NCCNC(=O)CCOCCOCCOCCOCCC(=O)O)[C@@H](O)[C@H](O)[C@H]2O)c1)C(C)C , report its measured EC50.
3.5

Requested read-out: EC50. Entry: CC[C@H](C)[C@@H]([C@@H](CC(=O)N1CCC[C@H]1[C@H](OC)[C@@H](C)C(=O)N[C@H](C)[C@@H](O)c1ccccc1)OC)N(C)C(=O)[C@@H](NC(=O)[C@H](C(C)C)N(C)C(=O)OCc1ccc(NC(=O)[C@H](CCCNC(N)=O)NC(=O)[C@@H](NC(=O)CN(C)C(=O)CCOCCC(=O)NCCNc2ncc(-c3cc(C)cc(F)c3)c(N3CCC(N)CC3)c2-c2nc3ccc(Cl)cc3[nH]2)C(C)C)c(OCC(N)=O)c1)C(C)C
7

Data provenance: patent US20260007758A1
